From: ChEMBL document CHEMBL4033724

# Target of assay: Carbonic anhydrase 1 (Homo sapiens, UniProt P00915)
# Sequence (P00915 whole entry): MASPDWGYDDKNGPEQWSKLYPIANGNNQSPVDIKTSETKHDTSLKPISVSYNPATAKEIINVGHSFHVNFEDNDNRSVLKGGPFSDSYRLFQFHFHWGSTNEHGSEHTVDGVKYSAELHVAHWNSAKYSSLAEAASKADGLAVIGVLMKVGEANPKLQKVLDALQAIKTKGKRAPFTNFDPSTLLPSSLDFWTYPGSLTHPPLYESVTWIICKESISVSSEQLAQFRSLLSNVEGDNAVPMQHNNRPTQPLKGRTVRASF
# Test: Inhibition of recombinant human cytosolic carbonic anhydrase 1 expressed in Escherichia coli pretreated for 15 mins prior to testing by stopped-flow assay
pKi: −log10 of the molar value.
Property measured: pKi

* NS(=O)(=O)c1ccc(NC(=S)N/N=C2\C(=O)Nc3ccccc32)cc1 | 5.92
* NS(=O)(=O)c1ccc(NC(=S)N/N=C2\C(=O)Nc3ccc(I)cc32)cc1 | 6.20
* NS(=O)(=O)c1ccc(NC(=S)N/N=C2\C(=O)Nc3ccc([N+](=O)[O-])cc32)cc1 | 7.16
* NS(=O)(=O)c1ccc(NC(=S)N/N=C2\C(=O)Nc3ccc(OC(F)(F)F)cc32)cc1 | 6.32
* NS(=O)(=O)c1ccc(NC(=S)N/N=C2\C(=O)Nc3c(Br)cc(Br)cc32)cc1 | 6.16
* NS(=O)(=O)c1ccc(NC(=S)N/N=C2\C(=O)Nc3c(Cl)cccc32)cc1 | 7.12
* NS(=O)(=O)c1ccc(NC(=S)N/N=C2\C(=O)Nc3ccc(Br)cc32)cc1 | 6.05
* NS(=O)(=O)c1ccc(NC(=S)N/N=C2\C(=O)Nc3ccc(F)cc32)cc1 | 6.25
* NS(=O)(=O)c1ccc(NC(=S)N/N=C2\C(=O)Nc3ccc(S(=O)(=O)O)cc32)cc1 | 6.05
* NS(=O)(=O)c1ccc(NC(=S)N/N=C2\C(=O)Nc3c(Cl)cc(Cl)cc32)cc1 | 6.26
* Cc1ccc2c(c1)/C(=N/NC(=S)Nc1ccc(S(N)(=O)=O)cc1)C(=O)N2 | 6.13
* NS(=O)(=O)c1ccc(NC(=S)N/N=C2\C(=O)Nc3ccc(Cl)cc32)cc1 | 6.19
* NS(=O)(=O)c1ccc(NC(=S)N/N=C2\C(=O)Nc3c(F)cccc32)cc1 | 7.24
